system: HCT116; assay: efficacy (fitted maximal change in viability relative to DMSO control); higher = less cytotoxic (negative = loss of viability); details: 48 h
Where a name gives a salt, the structure may show the parent alone.
Assign True whenever efficacy does not fall below -50%; assign False whenever it does.

>>> df
                                   molecule  assigned_label
0  N#CCNC(=O)c1ccc(-c2ccnc(Nc3ccc(N4CCOCC4)cc3)n2)cc1 [Momelotinib]           False
1  O=C1O[C@]2(CC[C@@H](C(=O)Nc3ccn(-c4ccccc4F)n3)CC2)c2cnccc21 [MK-0557]            True
2  CCC[C@@H]1C[C@@H](C(=O)N[C@@H]([C@H]2O[C@H](SC)[C@H](O)[C@@H](O)[C@H]2O)[C@H](C)Cl)N(C)C1 [Clindamycin HCl]            True
3  CC(C)CC(N(C)C)C1(c2ccc(Cl)cc2)CCC1 (centres undefined) [Sibutramine hydrochloride]            True
4  [O-][S+]1(=O)/N=C(/NC2=CC(=CC=C2)NC(=O)CCl)C3=CC=CC=C13 [NMS-859]           False

Data request: Could you please find out whether CON(C)C(=O)N1/N=C(S[C@@]1(CCCN)C2=CC=CC=C2)/C3=CC(=CC=C3F)F [Filanesib] has efficacy that meets -50% or exceeds it?
Data returned: True

Data request: Quick check: does `CCCC(CCC)C(=O)NC/1=N/C(=O)N(/C=C1)[C@@H]2O[C@H](CO)[C@@H](O)C2(F)F` have efficacy greater than or equal to -50%?
Data returned: True

Data request: Decide: is the reported value of efficacy for O=C(CCc1ccc(O)cc1)c1c(O)cc(O)cc1O[C@@H]1O[C@H](CO)[C@@H](O)[C@H](O)[C@H]1O [Phlorizin] equal to or greater than -50%?
Data returned: True

Data request: Hi, just wondering whether CC[C@H](C)[N]1C=C(C)C2=C1C=C(C=C2C(=O)NC\C3=C(C)\C=C(\C)NC3=O)C4=CC=C(N=C4)N5CCNCC5 [GSK-126] shows efficacy of -50% or higher.
Data returned: False

====

test system: HCT116; assay: AC50 cell viability (CellTiter-Glo); higher = less potent; conditions: 48 h
I'd be grateful if you could share measured log10(AC50 cell viability) for these entries.
Base-10 log of AC50 cell viability, unit µM.

molecule	log10(AC50 cell viability)
CC1Oc2cc(cnc2N)-c2c(nn(C)c2C#N)CN(C)C(=O)c2ccc(F)cc21 (centres undefined) [Lorlatinib]	1.17
CN1CC[C@H]([C@@H](O)C1)C2=C(O)C=C(O)C3=C2O\C(=C/C3=O)C4=CC=CC=C4Cl [Flavopiridol]	-0.73
COc1cc(/C=C/C(=O)CC(=O)/C=C/c2ccc(O)c(OC)c2)ccc1O [Curcumin]	0.62
COc1cccc(-c2cc(F)ccc2C2Cc3nc(N)nc(C)c3C(=O)N2)n1 (centres undefined) [HSP-990]	-1.28
c1cc(-c2cnn3cc(-c4ccc(OCCN5CCCCC5)cc4)cnc23)ccn1 [Dorsomorphin]	0.67

Hey, can you go through the list below and give me log10(AC50 cell viability) for every item?
1. CC(C)[C@]12O[C@H]1[C@@H]3O[C@@]34[C@@]5(C)CC\C6=C(COC6=O)/[C@@H]5C[C@@H]7O[C@]47[C@@H]2O [Triptolide]
2. CC(C)(C)NC(=O)Nc1cccc(Nc2ncc(F)c(NC(C)(C)CO)n2)c1 [Bayer-18]
3. c1ccc2c(-c3cnn4cc(-c5ccc(OCCN6CCOCC6)cc5)cnc34)ccnc2c1

Data returned:
[-1.63, 1.27, 0.81]

Items follow; give log10(AC50 cell viability) for each.
1. Cc1cc(-c2nc3cc(F)ccc3s2)ccc1NC(=O)[C@@H](N)CCCCN
2. COc1cc2nccc(Oc3ccc(NC(=O)Nc4ccc(F)cc4F)c(F)c3)c2cc1OC [KI-8751]
3. NC(=O)c1cnc2[nH]ccc2c1NC1C2CC3C[C@H]1CC(O)(C3)C2 (some centres undefined) [Peficitinib]
4. ClC1=C[NH]N=C1C\2NC(=N\C3=C2C(=O)CCC3)/NC4=NC5=CC=CC=C5O4 (centres undefined)
5. CCn1c(-c2nonc2N)nc2cncc(CNC3CCNCC3)c21

Data returned:
1: 0.87; 2: 0.32; 3: 0.87; 4: 1.27; 5: 1.02

Please give log10(AC50 cell viability) for each item listed below.
1. CCC(C1CCC(C)C(O1)C(C)C(O)C(C)C(=O)C(CC)C2OC\3(O[C@]4(CC[C@@](C)(O4)C5CC[C@@](O)(CC)C(C)O5)C(O)\C=C3)C(C)CC2C)C([O-])=O (some centres undefined) [Salinomycin]
2. N[S+](=O)([O-])c1ccc(Cc2c(-c3cccc(-c4ccccc4)c3)nn(-c3nc(C(=O)O)cs3)c2CC2CC2)cc1
3. CCN1CCC(n2cc(CNc3cc(Cl)c4ncc(C#N)c(Nc5ccc(F)c(Cl)c5)c4c3)nn2)CC1 [Wyeth Cot Inhibitor 2]
4. CN1CCC(C1CO)C2=C(O)C=C(O)C3=C2O\C(=C/C3=O)C4=CC=CC=C4Cl (centres undefined) [Riviciclib (P276-00)]
5. CC1(C)CCC2(CC1)N[C@@H](C(=O)N[C@@H]1CC[C@@H](C(N)=O)OC1)[C@H](c1ccnc(Cl)c1F)[C@]21C(=O)Nc2cc(Cl)ccc21 [Milademetan]

Data returned:
1.12
1.17
1.32
-0.43
0.60

Need log10(AC50 cell viability) for each of these molecules.
1. COc1cc2ncnc(Nc3cccc(Br)c3)c2cc1OC
2. COCCOC(=O)N1CCN([S+](=O)([O-])c2cc(F)c(Oc3ccc(Cl)cc3)c(F)c2)C(C(=O)NO)C1 (centres undefined) [XL-784]
3. COc1cc(Nc2cnc(C#N)c(O[C@H](C)CN(C)C)n2)ncc1-c1cnn(C)c1

Data returned:
1.32
1.02
1.07

====

Give measured efficacy for each item. Keep answers brief.
test system: HCT116; experiment: efficacy (fitted maximal change in viability relative to DMSO control); higher = less cytotoxic (negative = loss of viability); settings: 48 h
Counter-ions that a name gives are not always drawn.
One number for each entry, in %.

Recorded results for 3 compounds are shown here.
>>> df
                                   compound  assay_value
0  OC1=CC=C(C=C1)\C2=C(O)\C(=O)C3=C(O2)C=C(O)C=C3O         12.7
1  CC(NCCc1ccc(O)cc1)C(O)c1ccc(O)cc1 (centres undefined) [Ritodrine hydrochloride]        -19.4
2  CN1CCN(c2ncc(-c3cc(Cl)cc(Cl)c3Cl)c(N)n2)CC1        -74.6

Batch of 2 compounds: report efficacy for each.
1. Cc1cc(O)c2c(c1)C(=O)c1cccc(O)c1C2=O
2. CN1CCN(CC1)C2=CC3=C([NH]C(=N3)C/4=C(\N)C5=C(F)C=CC=C5NC4=O)C=C2

Data returned:
1. -8.65
2. -106

Provide the reported efficacy of each entry below, same order.
1. CN[C@H]1CN(C[C@@H]1OC)C2=NC3=C(C=C2)C(=O)C(=C\N3C4=NC=CS4)/C(O)=O
2. Cc1ccc(-c2nn(C(C)(C)CNC(=O)c3ccncc3)c3ncnc(N)c23)cc1
3. Cn1ncc2cc(-c3cnc(N)c(Cl)c3N3CCC4(CCNC4=O)CC3)ccc21

Data returned:
1: -59.8; 2: -53; 3: -46.1

Data request: Lab note: need efficacy for `CCN(CC)CCNc1ccc(C)c2sc3ccccc3c(=O)c12` on HCT116, anyone have it?
Data returned: -119

====

system: HCT116; test: efficacy (fitted maximal change in viability relative to DMSO control); higher = less cytotoxic (negative = loss of viability); conditions: 48 h
Structures can show the parent of a compound that is named as a salt.
Output Criterion met for efficacy not less than -70%; output Criterion not met otherwise.

Study these solved cases before continuing.
>>> df
                                   compound  experimental_system     assigned_label
0  c1cc(-c2cnn3cc(-c4ccc(N5CCNCC5)cc4)cnc23)c2cccnc2c1               HCT116  Criterion not met
1  CN(C)CCCN1c2ccccc2CCc2ccc(Cl)cc21 [Clomipramine hydrochloride]               HCT116  Criterion not met
2  C[C@@H]\1COC(=N1)\NC2=CC3=C(C=C2)N=CN=C3NC4=CC(=C(OCC5=NC=CS5)C=C4)Cl [Varlitinib tosylate]               HCT116  Criterion not met
3          CCCCCCNC(=O)N1\C=C(F)/C(=O)NC1=O               HCT116      Criterion met
4  FC(F)(F)C1=CC=C2C(SCCCCCO\C3=C\O\C(CN4CCOCC4)=C/C3=O)=CC=NC2=C1               HCT116      Criterion met

Data request: Entry NCCc1ccc(O)c(O)c1 [Dopamine hydrochloride] : is its efficacy no less than -70%?
Data returned: Criterion met

Data request: Please tell me: is the compound `COC1=CC(=CC=C1)C2=CC=C(NC(=O)/C3=C(/CCC3)C(O)=O)C(=C2)F` at or over -70% in terms of efficacy?
Data returned: Criterion met
